Some binders, each annotated with its measured pKd.
biological target: T1, human MDM2 (residues 2–125) (human, UniProt Q00987 2-125); experiment: ITC; p53 peptide in the syringe titrated into MDM2 in the cell; Auto-iTC200; 15 °C; 50 mM Tris-HCl pH 8.0, 250 mM NaCl, 0.5 mM TCEP; conditions: both partners purified
T1 construct: MDM2 (murine double minute 2), human, N-terminal domain, residues 2-125; no tag is named; also called N-terminal domain of MDM2
T1 sequence (Q00987 2-125): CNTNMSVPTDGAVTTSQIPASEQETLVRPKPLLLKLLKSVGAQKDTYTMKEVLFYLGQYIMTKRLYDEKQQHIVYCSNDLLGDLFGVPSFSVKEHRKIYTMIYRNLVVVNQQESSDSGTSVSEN
pKd: −log10 of the molar value.

binder | pKd
Ac-EEFEDLWKLLPEN-NH2 [Ac-EeFeDLWKLLPEN-NH2 (P53-E18-E20)] | 5.30
Ac-ETFDDLWKLLPEN-NH2 [Ac-ETFdDLWKLLPEN-NH2 (P53-D20)] | 5.24
Ac-EDFSDLWKLLPEN-NH2 [Ac-EdFSDLWKLLPEN-NH2 (P53-D18)] | 4.72
Ac-EEFDDLWKLLPEN-NH2 (also called double phosphomimetic mutant) [Ac-EeFdDLWKLLPEN-NH2 (P53-E18-D20)] | 4.69
Ac-EEFSDLWKLLPEN-NH2 [Ac-EeFSDLWKLLPEN-NH2 (P53-E18)] | 5.15
